- ASSAYED SYSTEM: cat T1R1/T1R3 receptor (Felis catus)
- ASSAY COMMENT: cell-based
Structures can show the parent of a compound that is named as a salt.
Listed below: log10 of Threshold values for each entry.
ASSAY METRIC: log10 of Threshold (log10 of the value in mM)

COMPOUND | ASSAY METRIC | REPORTED
O=P(O)(O)OC[C@H]1O[C@@H](n2cnc3c2ncn2ccnc32)[C@H](O)[C@@H]1O [1, N6-Ethenoadenosine-5′-O-monophosphate] | log10 of Threshold | -2.00
O=C(Nc1ncnc2c1ncn2[C@@H]1O[C@H](COP(=O)(O)O)[C@@H](O)[C@H]1O)c1ccccc1 | log10 of Threshold | -0.52
O=c1[nH]c(=O)c2ncn([C@@H]3O[C@H](COP(=O)(O)O)[C@@H](O)[C@H]3O)c2[nH]1 [xanthosine monophosphate] | log10 of Threshold | -1.60
Nc1ncnc2c1ncn2C1OC(COP(=O)(O)OS(=O)(=O)O)C(O)C1O (stereo not drawn) [Adenosine 5′-phosphosulfate sodium salt, Adenosine 5′-phosphosulfate] | log10 of Threshold | -2.10
NC(=O)c1ncn(C2OC(COP(=O)(O)O)C(O)C2O)c1N (stereo not drawn) | log10 of Threshold | -0.70
CNc1ccccc1C(=O)OC1C[C@H](n2cnc3c(=O)[nH]c(N)nc32)O[C@@H]1COP(=O)(O)O (stereo partly drawn) | log10 of Threshold | -2.60
O=c1ccn([C@H]2O[C@@H](COP(=O)(O)O)[C@H](O)[C@@H]2O)c(=O)[nH]1 (stereo in doubt) [uridine monophosphate] | log10 of Threshold | 0.48
O=c1ccn([C@H]2C[C@H](O)[C@@H](COP(O)(O)=S)O2)c(=O)[nH]1 [2′-Deoxyuridine-5′-O-monophosphosphorothioate (5′-dUMPS)] | log10 of Threshold | 0.70
Nc1ncnc2c1ncn2[C@@H]1O[C@H](COP(=O)(O)O)[C@@H](O)[C@H]1O [adenosine monophosphate] | log10 of Threshold | -2.52
CNc1ncnc2c1ncn2[C@@H]1O[C@H](COP(=O)(O)O)[C@@H](O)[C@H]1O [N6-Methyladenosine 5′-monophosphate] | log10 of Threshold | -1.70
CNc1ccccc1C(=O)O[C@H]1C[C@H](n2cnc3c(N)ncnc32)O[C@@H]1COP(=O)(O)O | log10 of Threshold | -2.60
Nc1nc2c(ncn2[C@@H]2O[C@H](COP(=O)(O)OP(=O)(O)O)[C@@H](O)[C@H]2O)c(=S)[nH]1 [6-Thioguanosine-5′-O-disphosphate] | log10 of Threshold | -1.52

====

- ASSAYED SYSTEM: T1R1/T1R3 receptor (Felis catus, UniProt E3UMS2)
- ASSAY COMMENT: cell-based
- EXPERIMENTAL CONDITIONS: EC50 (mM), +Alanine (20 mM)
ASSAY METRIC: EC50 (mM)

STRUCTURE NOTATION | ASSAY METRIC | REPORTED
O=C1CC(=O)N(Cc2ccccc2)C(=O)N1Cc1ccccc1 | EC50 | 0.31

====

- ASSAYED SYSTEM: T1R1/T1R3 receptor (Felis catus)
- ASSAY COMMENT: cell-based
- From the text: HEK293 cells that stably express T1R3 and inducibly express T1R1 were exposed to nucleotide derivatives alone to activate the umami receptor. Activation of the T1R1/T1R3 receptor was detected by a change in intracellular calcium levels using a calcium sensitive fluorescent dye. Cells that express T1R3 but not T1R1 were used as a control. A FLIPR® Tetra or a FlexStation® 3 was used for data capture. […]
Note to self: use criterion met only for Thres (mM), +Alanine (20 mM) readings below 0.3 mM; a reading exactly at 0.3 mM still gets criterion not met.

MOLECULE | ANSWER LABEL
O=C(O)C1CCCCC1C(=O)Nc1cc(Cl)cc(Cl)c1 (stereo not drawn) | criterion met
Nc1nc2c(ncn2[C@@H]2O[C@H](COP(=O)(O)OP(=O)(O)O)[C@@H](O)[C@H]2O)c(=S)[nH]1 [6-Thioguanosine-5′-O-diphosphate] | criterion met
COC(=O)[C@H](Cc1ccccc1)NCc1ccccc1.Cl | criterion met
O=C(NCCc1ccccc1)c1ccc2c(c1)OCO2 | criterion not met

====

- ASSAYED SYSTEM: cat T1R1/T1R3 receptor (Felis catus, UniProt A0ABI7Z2I4)
- Sequence (A0ABI7Z2I4 171-420): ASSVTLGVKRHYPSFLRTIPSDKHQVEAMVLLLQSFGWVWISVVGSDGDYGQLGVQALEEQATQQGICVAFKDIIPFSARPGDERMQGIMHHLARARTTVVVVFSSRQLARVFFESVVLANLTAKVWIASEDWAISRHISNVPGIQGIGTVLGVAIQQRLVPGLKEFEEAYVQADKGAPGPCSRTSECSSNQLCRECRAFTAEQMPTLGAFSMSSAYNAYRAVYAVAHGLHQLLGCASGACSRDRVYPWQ
- Sequence (Q49KI5 25-865 E206Q/N523D/F654L partner): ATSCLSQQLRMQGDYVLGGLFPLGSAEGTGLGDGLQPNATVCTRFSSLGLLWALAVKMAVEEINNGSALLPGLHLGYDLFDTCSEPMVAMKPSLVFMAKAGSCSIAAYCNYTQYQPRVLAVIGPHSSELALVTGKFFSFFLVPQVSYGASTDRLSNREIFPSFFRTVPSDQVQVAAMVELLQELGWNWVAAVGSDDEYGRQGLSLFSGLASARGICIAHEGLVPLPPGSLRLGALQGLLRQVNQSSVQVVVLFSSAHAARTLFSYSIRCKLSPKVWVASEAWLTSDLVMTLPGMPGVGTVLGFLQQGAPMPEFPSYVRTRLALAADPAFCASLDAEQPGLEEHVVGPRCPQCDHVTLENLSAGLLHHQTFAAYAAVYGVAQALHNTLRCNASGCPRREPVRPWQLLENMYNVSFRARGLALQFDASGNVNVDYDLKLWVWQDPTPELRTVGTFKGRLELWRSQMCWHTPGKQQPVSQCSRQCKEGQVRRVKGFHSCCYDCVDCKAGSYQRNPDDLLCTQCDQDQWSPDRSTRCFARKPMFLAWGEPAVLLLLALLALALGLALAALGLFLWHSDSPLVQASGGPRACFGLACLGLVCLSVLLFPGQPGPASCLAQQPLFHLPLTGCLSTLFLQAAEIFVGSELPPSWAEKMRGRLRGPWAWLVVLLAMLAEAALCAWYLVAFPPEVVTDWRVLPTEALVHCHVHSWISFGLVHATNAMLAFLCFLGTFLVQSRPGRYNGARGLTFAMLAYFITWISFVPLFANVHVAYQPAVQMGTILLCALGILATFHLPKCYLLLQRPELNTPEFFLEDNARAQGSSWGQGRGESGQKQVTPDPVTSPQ
- ASSAY COMMENT: cell-based
- EXPERIMENTAL CONDITIONS: read-out: EC50- with Ala
pEC50: −log10 of the molar value.

STRUCTURE NOTATION | ASSAYED SYSTEM | pEC50
O=C(Nc1ncnc2c1ncn2[C@@H]1O[C@H](COP(=O)(O)O)[C@@H](O)[C@H]1O)c1ccccc1 | cat T1R1/T1R3 receptor (Felis catus, UniProt A0ABI7Z2I4) | < 3.00

====

- ASSAYED SYSTEM: T1R1/T1R3 receptor (Felis catus)
- ASSAY COMMENT: cell-based
- Format: cell-based
- EXPERIMENTAL CONDITIONS: + IMP (0.2 mM); Table 17
Below: a set of entries, each annotated with reported Thres + IMP.
ASSAY METRIC: Thres + IMP (mM)

COMPOUND | REPORTED
COc1cc(C(=O)NC(C(N)=O)c2ccccc2)cc(Cl)c1OC (stereo not shown) | 0.17
O=C(NCCc1ccccc1)C(=O)NCc1cccnc1 | 0.1
COc1ccc(/C=C/C(=O)NC2CCCCC2C)cc1 (stereo not shown) | 0.3
CCC(CC)NC(=O)c1ccc(OC)c(OC)c1 [3,4-dimethoxy-N-(pentan-3-yl)benzamide] | 0.5

====

Each entry below carries its reported EC50.
- ASSAYED SYSTEM: T1R1/T1R3 receptor (Felis catus, UniProt E3UMS2)
- ASSAY COMMENT: cell-based
- Type: cell-based
- EXPERIMENTAL CONDITIONS: +Alanine (20 mM); Table 18; read-out: EC50 +Alanine

COMPOUND | EC50
CCC(CC)NC(=O)/C=C/c1ccc(OC)cc1 | 0.59 mM
O=C(Nc1ccccc1Br)N[C@@H]1c2ccccc2C[C@@H]1O (stereo in doubt) | > 3 mM
CCC(CC)NC(=O)c1ccc(C)c(C)c1 [3,4-dimethyl-N-(pentan-3-yl)benzamide] | > 3 mM
O=C(NCCc1ccccc1)C(=O)NCc1cccnc1 | > 1 mM
COc1ccc(/C=C/C(=O)NC2CCCCC2C)cc1 (centres unmarked) | > 10 mM
COc1ccc(C(=O)NC(C)c2ccccc2)cc1C (centres unmarked) | > 3 mM
CCC(CC)NC(=O)c1ccc(OC)c(OC)c1 [3,4-dimethoxy-N-(pentan-3-yl)benzamide] | > 10 mM
CC1CCCC(NC(=O)c2ccc3c(c2)OCO3)C1C (centres unmarked) | > 3 mM
CCCC(C)NC(=O)c1ccc(OC)c(C)c1 (centres unmarked) | 0.2 mM
CCC(CC)NC(=O)c1ccc(Br)o1 | > 3 mM
CCC(CC)NC(=O)c1ccc2c(c1)OCCO2 | > 1 mM
